- Measurement Target: T1, Recombinant protein RHAMM-CT (truncated RHAMM, carboxy terminus containing the HA binding domain, amino acids … (UniProt Q00547 706-766))
- T1 chain: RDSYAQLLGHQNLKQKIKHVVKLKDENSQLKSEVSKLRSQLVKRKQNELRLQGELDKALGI
- Protocol Details: SPR; average
Ends that are not written are not given here.
Measured Property: Kd (nM)

SVEAEAEEGEEY-NH2 (Synthetic 12-mer made on Rink amide MBHA resin) [peptide 3a (SEQ ID NO: 3), unmodified tubulin-derived peptide, alpha-IIIc CTT] | 331

a. GEFEEEAEEEVA-NH2 (Synthetic 12-mer made on Rink amide MBHA resin) [peptide 11a (SEQ ID NO: 11), unmodified tubulin-derived peptide, beta-IV CTT]
b. EAFEDEEEEIDG-NH2 (Synthetic 12-mer made on Rink amide MBHA resin) [peptide 12a (SEQ ID NO: 12), unmodified tubulin-derived peptide]
Identify the entry with the smaller Kd: a or b . Please respond with the label that marks your chosen entry.
a
(a: 130 nM, b: 211 nM)
